Ref: ChEMBL document CHEMBL1151757

METHOD DESCRIPTION: Drug uptake in anesthetized cynomolgus monkey brain frontal lobe after 95 mins postinjection
Type: ADME, organism-based, Macaca fascicularis
SETUP CONDITIONS: in vivo
Rule: Drug uptake below 3 gives satisfied. Equal to or above 3 gives not satisfied.

Previously resolved entries follow.
1) O=C(OCCC[18F])C1C2CCC(CC1c1cccc(/C=C\Br)c1)N2 (stereo not given) :: not satisfied
2) O=C(OCC[18F])C1C2CCC(CC1c1cccc(/C=C\I)c1)N2 (stereo not given) :: satisfied
3) O=C(OCC[18F])C1C2CCC(CC1c1ccc(/C=C\I)cc1)N2 (stereo not given) :: satisfied
4) O=C(OCC[18F])C1C2CCC(CC1c1cccc(/C=C\Br)c1)N2 (stereo not given) :: satisfied

Let us examine a further case.
Does O=C(OCCC[18F])C1C2CCC(CC1c1cccc(/C=C\I)c1)N2 (stereo not given) have Drug uptake strictly under 3?
satisfied
